Test system: HepG2 hepatoma cells
Experiment: Cell proliferation assay, HepG2 (CellTiter-Glo, 7 days)
Assay type: cell-based
Conditions: HepG2, 7 days, CellTiter-Glo 2.0
pEC50: −log10 of the molar value.
measure name: pEC50

These solved cases illustrate the format of a correct answer.
>>> data_value("C[C@]1(CCc2ccc3cc(Cl)c(N)nc3c2)C[C@@H](n2ccc3c(N)ncnc32)[C@H](O)[C@]1(C)O [Compound 28]")
"7.00 to 7.70"
>>> data_value("Nc1ncnc2c1ccn2[C@H]1[C@H](O)[C@H](O)[C@]2(C(O)c3ccc(Cl)c(Cl)c3)C[C@H]12 (single isomer, unassigned) [Compound 8]")
"6.00 to 7.00"

Q: For the molecule CC(C)C(=O)O[C@H]1[C@H](n2ccc3c(N)ncnc32)C[C@](C)(CCc2ccc3nc(N)ccc3c2)[C@H]1OC(=O)C(C)C [Compound 26-A] , what pEC50 is on record?
A: ≤ 6.00

Q: Now give it for C[C@]1(CCc2ccc3ccc(N)nc3n2)C[C@@H](n2ccc3c(N)ncnc32)[C@H](O)[C@@H]1O [Compound 24] too.
A: 7.00 to 7.70

* * *

Reported pEC50 is given for each of the following compounds.
System: A549 lung carcinoma cells
Assay: Cell proliferation assay, A549 (CellTiter-Glo, 7 days)
Assay type: cell-based
Conditions: Homo sapiens, A549, 168 h, A549, 7 days, CellTiter-Glo 2.0
pEC50: −log10 of the molar value.

These solved cases illustrate the format of a correct answer.
>>> data_value("Nc1nc2cc(OC[C@@]34C[C@@H]3[C@@H](n3ccc5c(N)ncnc53)[C@H](O)[C@@H]4O)ccc2cc1Br [Compound 15]")
"6.00 to 7.00"
>>> data_value("C[C@]1(CCc2ccc3cc4c(nc3c2)NC(=O)CO4)C[C@@H](n2ccc3c(N)ncnc32)[C@H](O)[C@@H]1O [Compound 31]")
"≤ 6.00"
>>> data_value("C[C@]1(CCc2ccc3cc(C4CC4)c(N)nc3c2)C[C@@H](n2ccc3c(N)ncnc32)[C@H](O)[C@@H]1O [Compound 14]")
"> 7.70"
>>> data_value("Nc1nc2cc(CC[C@@]3(CO)C[C@@H](n4ccc5c(N)ncnc54)[C@H](O)[C@@H]3O)cc(F)c2cc1Cl [Compound 40]")
"> 7.70"
>>> data_value("C[C@]1(CCc2ccc3nc(N)ccc3c2)C[C@@H](n2ccc3c(N)ncc(F)c32)[C@H](O)[C@@H]1O [Compound 21-A]")
"≤ 6.00"

Q: For the compound C[C@]1(CCc2ccc3ccc(N)nc3c2)C[C@@H](n2ccc3c(N)ncnc32)[C@H](O)[C@@H]1O [Compound 12] , what pEC50 is on record?
A: > 7.70

Q: Now give it for C[C@]1(CCc2cc(F)c3cc(Cl)c(N)nc3c2)C[C@@H](n2ccc3c(N)ncnc32)[C@H](O)[C@@H]1O [Compound 30] too.
A: > 7.70

Q: Now give it for C[C@]1(CCc2ccc3ccc(N)nc3c2)C[C@@H](n2ccc3c(N)nccc32)[C@H](O)[C@@H]1O [Compound 38] too.
A: > 7.70

Q: Now give it for C[C@]1(CCCCc2ccc(Cl)c(N)n2)C[C@@H](n2ccc3c(N)ncnc32)[C@H](O)[C@@H]1O [Compound 46] too.
A: 6.00 to 7.00

Q: Now give it for C[C@]1(CCc2cc(F)c3ccc(N)nc3c2)C[C@@H](n2ccc3c(N)ncnc32)[C@H](O)[C@@H]1O [Compound 37] too.
A: > 7.70

Q: Now give it for NC(=O)[C@]1(CCc2cc(F)c3cc(Cl)c(N)nc3c2)C[C@@H](n2ccc3c(N)ncnc32)[C@H](O)[C@@H]1O [Compound 45] too.
A: 6.00 to 7.00

Q: Now give it for CCCCCOC(=O)Nc1nc2cc(CC[C@@]3(C)C[C@@H](n4ccc5c(N)ncnc54)[C@H](O)[C@@H]3O)ccc2cc1Cl [Compound 33] too.
A: > 7.70

Q: Now give it for C#C[C@]1(CCc2cc(F)c3cc(Cl)c(N)nc3c2)C[C@@H](n2ccc3c(N)ncnc32)[C@H](O)[C@@H]1O [Compound 52] too.
A: > 7.70

Q: Now give it for CC(C)C(=O)O[C@H]1[C@H](n2ccc3c(N)ncnc32)[C@H]2C[C@@]2(CCc2ccc3nc(N)ccc3c2)[C@H]1OC(=O)C(C)C [Compound 25-A] too.
A: ≤ 6.00

* * *

Target: PRMT5/MEP50 (Homo sapiens (Human))
Sequence (O14744 whole entry): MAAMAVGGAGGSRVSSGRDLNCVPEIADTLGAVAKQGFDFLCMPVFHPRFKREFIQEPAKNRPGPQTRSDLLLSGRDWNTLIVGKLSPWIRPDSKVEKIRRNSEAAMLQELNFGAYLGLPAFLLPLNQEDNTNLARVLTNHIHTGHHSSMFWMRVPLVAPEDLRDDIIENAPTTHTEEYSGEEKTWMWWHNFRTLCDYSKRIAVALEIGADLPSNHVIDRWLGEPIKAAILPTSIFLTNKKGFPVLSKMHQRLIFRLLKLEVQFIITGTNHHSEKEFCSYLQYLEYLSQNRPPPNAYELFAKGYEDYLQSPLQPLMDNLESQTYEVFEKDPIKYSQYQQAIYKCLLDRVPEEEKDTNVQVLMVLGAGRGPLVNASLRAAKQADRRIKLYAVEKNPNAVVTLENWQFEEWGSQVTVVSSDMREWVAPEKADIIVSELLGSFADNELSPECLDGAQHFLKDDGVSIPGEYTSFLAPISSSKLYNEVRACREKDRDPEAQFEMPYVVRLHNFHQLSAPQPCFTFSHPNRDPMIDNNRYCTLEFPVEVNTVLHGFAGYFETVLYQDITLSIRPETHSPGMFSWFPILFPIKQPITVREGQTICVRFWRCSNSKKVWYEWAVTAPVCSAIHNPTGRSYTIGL
Sequence (Q9BQA1 whole entry partner): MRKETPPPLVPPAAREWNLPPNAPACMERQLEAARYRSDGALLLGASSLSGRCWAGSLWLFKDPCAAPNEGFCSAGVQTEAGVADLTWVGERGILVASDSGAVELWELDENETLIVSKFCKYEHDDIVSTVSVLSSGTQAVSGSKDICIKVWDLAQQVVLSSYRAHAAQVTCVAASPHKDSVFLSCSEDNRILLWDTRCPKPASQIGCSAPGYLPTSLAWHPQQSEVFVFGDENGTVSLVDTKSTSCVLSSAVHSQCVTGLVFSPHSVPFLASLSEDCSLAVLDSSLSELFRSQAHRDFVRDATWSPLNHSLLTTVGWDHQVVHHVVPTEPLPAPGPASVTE
Experiment: PRMT5/MEP50 enzyme inhibition assay, Assay 1 (radioisotope filter binding, 3H-SAM, histone H2A)
Type: biochemical
Settings: 1 μM 3H-SAM, 5 μM histone H2A, 60 min at 30° C.
Method: Compounds were tested for inhibition of methyltransferase activity in a radioisotope filter binding assay, similar to previously described in A selective inhibitor of PRMT5 with in vivo and in vitro potency in MCL models. Chan-Penebre et al., Nat Chem Biol. (2015) 11(6):432-7. […] Each reaction was spotted on a filter plate (Multiscreen FB Filter plate, Millipore) and washed 5 times in PBS, after which scintillation fluid was added and signal was detected in a scintillation counter. […]
Reported IC50 is given for each of the following compounds.

These solved cases illustrate the format of a correct answer.
>>> data_value("Nc1ccc2ccc(CC[C@@]34C[C@@H]3[C@@H](n3ccc5c(N)ncnc53)[C@H](O)[C@@H]4O)cc2n1")
"< 1 nM"
>>> data_value("C[C@]1(/C=C/c2ccc3cc(Br)c(N)nc3c2)C[C@@H](n2ccc3c(N)ncnc32)[C@H](O)[C@@H]1O")
"< 1 nM"
>>> data_value("C[C@H]1[C@H](CCc2ccc3ccc(N)nc3c2)[C@@H](O)[C@@H](O)[C@@H]1n1ccc2c(N)ncnc21")
"< 1 nM"

Q: For the compound C[C@]1(CCc2ccc3cc(C4CC4)c(N)nc3c2)C[C@@H](n2ccc3c(N)ncnc32)[C@H](O)[C@@H]1O , what IC50 is on record?
A: < 1 nM

Q: Now give it for Nc1nc2cc(OC[C@H]3C[C@@H](n4ccc5c(N)ncnc54)[C@H](F)[C@@H]3O)ccc2cc1Br too.
A: > 100 nM

Q: Now give it for C[C@]1(CCc2ccc3ccc(N)nc3c2)C[C@@H](n2ccc3c(N)ncnc32)[C@H](O)[C@@H]1O too.
A: < 1 nM

Q: Now give it for C=C1[C@@H](n2ccc3c(N)ncnc32)[C@H](O)[C@H](O)[C@H]1CCc1ccc2cc(Br)c(N)nc2c1 too.
A: < 1 nM

Q: Now give it for C[C@@H]1[C@H](CCc2ccc3ccc(N)nc3c2)[C@@H](O)[C@@H](O)[C@@H]1n1ccc2c(N)ncnc21 too.
A: 1 to 100 nM

* * *

Molecular target: PRMT5/MEP50 (Homo sapiens (Human))
Assay: PRMT5/MEP50 enzyme inhibition assay, Assay 2 (384-well, MALDI mass spectrometry, histone H4 1-21 peptide)
Type: biochemical
Details: 1 μM SAM, 0.1 μM histone H4 1-21 peptide, 18-hour incubation at rt
pIC50: −log10 of the molar value.
Reported pIC50 is given for each of the following compounds.

Q: Look up pIC50 with PRMT5/MEP50 (Homo sapiens (Human)) for this compound: CCCCCOC(=O)Nc1ccc2ccc(CC[C@@]3(C)C[C@@H](n4ccc5c(N)ncnc54)[C@H](O)[C@@H]3O)cc2n1
A: 7.00 to 9.00

Q: Now give it for Cc1cc2ccc(CC[C@@]3(C)C[C@@H](n4ccc5c(N)ncnc54)[C@H](O)[C@@H]3O)cc2nc1N too.
A: > 9.00

Q: Now give it for C[C@]1(CCCCc2cccc(N)n2)C[C@@H](n2ccc3c(N)ncnc32)[C@H](O)[C@@H]1O too.
A: > 9.00

* * *

Molecular target: PRMT5/MEP50 (Homo sapiens (Human))
Assay: PRMT5/MEP50 enzyme inhibition assay, Assay 2 (384-well, MALDI mass spectrometry, histone H4 1-21 peptide)
Type: biochemical
Details: 1 μM SAM, 0.1 μM histone H4 1-21 peptide, 18-hour incubation at rt
Experimental: Compounds were tested for inhibition of methyltransferase activity in 384-well plate assay format using mass spectrometry technology. In this enzyme inhibition assay, compounds were tested in a 11-dose IC50 mode with 3-serial dilution, in duplicate, starting at 1, 10, or 100 μM. […] Percent enzyme activity was calculated based on no inhibitor DMSO control as 100% activity. EC50 values were determined in GraphPad Prism 8 using the [inhibitor] vs. response—Variable slope (four parameters) function. […]
Reported IC50 is given for each of the following compounds.

These solved cases illustrate the format of a correct answer.
>>> data_value("NC(=O)[C@]1(CCc2cc(F)c3cc(Cl)c(N)nc3c2)C[C@@H](n2ccc3c(N)ncnc32)[C@H](O)[C@@H]1O")
"< 1 nM"
>>> data_value("C[C@]1(CCc2ccc3ccc(N)nc3c2)C[C@@H](n2ccc3c(N)nccc32)[C@H](O)[C@@H]1O")
"< 1 nM"

Moving on to the next compound.
Q: For the compound Nc1nc2cc(OC[C@@]34C[C@@H]3[C@@H](n3ccc5c(N)ncnc53)[C@H](O)[C@@H]4O)ccc2cc1Br , what IC50 is on record?
A: < 1 nM
